# IC50 values compiled below
# Test system: L1210 (mouse lymphocytic leukemia) cells
# procedure-text: Cell growth inhibition assay, L1210
# Format: cell-based
# measurement-setup: 72 hours incubation, phosphatase assay

# compound, display-unit, IC50
records = [
    ("CC[C@]1(NC(=O)N2Cc3ccc(N)cc3C2)C[C@H]2CN(CCc3c([nH]c4ccccc34)[C@@](C(=O)OC)(c3cc4c(cc3OC)N(C)[C@H]3[C@@](O)(C(=O)OC)[C@H](OC(C)=O)[C@]5(CC)C=CCN6CC[C@]43[C@@H]65)C2)C1", "nM", 0.47),
    ("CC[C@]1(NC(=O)N2CCC(N(C)C)C2)C[C@H]2CN(CCc3c([nH]c4ccccc34)[C@@](C(=O)OC)(c3cc4c(cc3OC)N(C)[C@H]3[C@@](O)(C(=O)OC)[C@H](OC(C)=O)[C@]5(CC)C=CCN6CC[C@]43[C@@H]65)C2)C1 (single isomer, unassigned) [Compound 11]", "nM", 14),
]

* * *

# Tested on: L1210 (mouse lymphocytic leukemia) cells
# procedure-text: Cell growth inhibition assay, L1210
# Format: cell-based
# measurement-setup: 72 hours incubation, phosphatase assay
Field 'label' (enum: yes / no). Set to yes when IC50 is strictly under 4 nM; else no.

# compound, class-assignment
records = [
    ("CC[C@]1(NC(=O)N2C3CCC2CC3)C[C@H]2CN(CCc3c([nH]c4ccccc34)[C@@](C(=O)OC)(c3cc4c(cc3OC)N(C)[C@H]3[C@@](O)(C(=O)OC)[C@H](OC(C)=O)[C@]5(CC)C=CCN6CC[C@]43[C@@H]65)C2)C1", "no"),
    ("CC[C@]1(NC(=O)N2Cc3ccc(NC(C)=O)cc3C2)C[C@H]2CN(CCc3c([nH]c4ccccc34)[C@@](C(=O)OC)(c3cc4c(cc3OC)N(C)[C@H]3[C@@](O)(C(=O)OC)[C@H](OC(C)=O)[C@]5(CC)C=CCN6CC[C@]43[C@@H]65)C2)C1", "yes"),
    ("CC[C@]1(NC(=O)N2Cc3ccc(NC(=O)c4ccccc4)cc3C2)C[C@H]2CN(CCc3c([nH]c4ccccc34)[C@@](C(=O)OC)(c3cc4c(cc3OC)N(C)[C@H]3[C@@](O)(C(=O)OC)[C@H](OC(C)=O)[C@]5(CC)C=CCN6CC[C@]43[C@@H]65)C2)C1", "yes"),
    ("CC[C@]1(NC(=O)N2Cc3ccc(N(C)C)cc3C2)C[C@H]2CN(CCc3c([nH]c4ccccc34)[C@@](C(=O)OC)(c3cc4c(cc3OC)N(C)[C@H]3[C@@](O)(C(=O)OC)[C@H](OC(C)=O)[C@]5(CC)C=CCN6CC[C@]43[C@@H]65)C2)C1", "yes"),
    ("CCC1(NC(=O)N2CCC(OC)C2)CC2CN(CCc3c([nH]c4ccccc34)C(C(=O)OC)(c3cc4c(cc3OC)N(C)C3C(O)(C(=O)OC)C(OC(C)=O)C5(CC)C=CCN6CCC43C65)C2)C1 (mixture of isomers)", "yes"),
    ("CC[C@]1(NC(=O)N2CCCCCCC2)C[C@H]2CN(CCc3c([nH]c4ccccc34)[C@@](C(=O)OC)(c3cc4c(cc3OC)N(C)[C@H]3[C@@](O)(C(=O)OC)[C@H](OC(C)=O)[C@]5(CC)C=CCN6CC[C@]43[C@@H]65)C2)C1", "no"),
    ("CC[C@]1(NC(=O)N2Cc3ccc(NC(=O)c4ccc(OC(F)(F)F)cc4)cc3C2)C[C@H]2CN(CCc3c([nH]c4ccccc34)[C@@](C(=O)OC)(c3cc4c(cc3OC)N(C)[C@H]3[C@@](O)(C(=O)OC)[C@H](OC(C)=O)[C@]5(CC)C=CCN6CC[C@]43[C@@H]65)C2)C1", "no"),
    ("CC[C@]1(NC(=O)N2Cc3ccc(NC(=O)c4cncnc4)cc3C2)C[C@H]2CN(CCc3c([nH]c4ccccc34)[C@@](C(=O)OC)(c3cc4c(cc3OC)N(C)[C@H]3[C@@](O)(C(=O)OC)[C@H](OC(C)=O)[C@]5(CC)C=CCN6CC[C@]43[C@@H]65)C2)C1", "yes"),
]

* * *

# Test system: L1210 (mouse lymphocytic leukemia) cells
# procedure-text: Cell growth inhibition assay, L1210
# Assay type: cell-based
# measurement-setup: 72 hours incubation, phosphatase assay
# IC50 values compiled below

# compound, IC50 / pM
measured = [
    ("CC[C@]1(NC(=O)N2Cc3ccc(NC)cc3C2)C[C@H]2CN(CCc3c([nH]c4ccccc34)[C@@](C(=O)OC)(c3cc4c(cc3OC)N(C)[C@H]3[C@@](O)(C(=O)OC)[C@H](OC(C)=O)[C@]5(CC)C=CCN6CC[C@]43[C@@H]65)C2)C1", 450),
    ("CC[C@]1(NC(=O)N2Cc3ccc(F)cc3C2)C[C@H]2CN(CCc3c([nH]c4ccccc34)[C@@](C(=O)OC)(c3cc4c(cc3OC)N(C)[C@H]3[C@@](O)(C(=O)OC)[C@H](OC(C)=O)[C@]5(CC)C=CCN6CC[C@]43[C@@H]65)C2)C1", 630),
    ("CC[C@]1(NC(=O)N2CCC(N(C)C)C2)C[C@H]2CN(CCc3c([nH]c4ccccc34)[C@@](C(=O)OC)(c3cc4c(cc3OC)N(C)[C@H]3[C@@](O)(C(=O)OC)[C@H](OC(C)=O)[C@]5(CC)C=CCN6CC[C@]43[C@@H]65)C2)C1 (single isomer, unassigned) [Compound 10]", 20000),
    ("CC[C@]1(NC(=O)N2CC=CC2)C[C@H]2CN(CCc3c([nH]c4ccccc34)[C@@](C(=O)OC)(c3cc4c(cc3OC)N(C)[C@H]3[C@@](O)(C(=O)OC)[C@H](OC(C)=O)[C@]5(CC)C=CCN6CC[C@]43[C@@H]65)C2)C1", 530),
]

* * *

# Tested on: HCT116/VM46 (a vinblastine-resistant strain of HCT116) cells
# procedure-text: Cell growth inhibition assay, HCT116/VM46
# Type: cell-based, human
# measurement-setup: 72 hours incubation, phosphatase assay; Pgp-overexpressing resistant line
pIC50: −log10 of the molar value.

# compound, pIC50
rows = [
    ("CC[C@]1(NC(=O)N2CCCCCCC2)C[C@H]2CN(CCc3c([nH]c4ccccc34)[C@@](C(=O)OC)(c3cc4c(cc3OC)N(C)[C@H]3[C@@](O)(C(=O)OC)[C@H](OC(C)=O)[C@]5(CC)C=CCN6CC[C@]43[C@@H]65)C2)C1", 6.48),
    ("CC[C@]1(NC(=O)N2CCC(F)C2)C[C@H]2CN(CCc3c([nH]c4ccccc34)[C@@](C(=O)OC)(c3cc4c(cc3OC)N(C)[C@H]3[C@@](O)(C(=O)OC)[C@H](OC(C)=O)[C@]5(CC)C=CCN6CC[C@]43[C@@H]65)C2)C1 (single isomer, unassigned) [Compound 18]", 7.70),
    ("CC[C@]1(NC(=O)N2Cc3ccc(C(F)(F)F)cc3C2)C[C@H]2CN(CCc3c([nH]c4ccccc34)[C@@](C(=O)OC)(c3cc4c(cc3OC)N(C)[C@H]3[C@@](O)(C(=O)OC)[C@H](OC(C)=O)[C@]5(CC)C=CCN6CC[C@]43[C@@H]65)C2)C1", 8.21),
    ("CC[C@]1(NC(=O)N2Cc3ccc(NC(=O)c4cccnn4)cc3C2)C[C@H]2CN(CCc3c([nH]c4ccccc34)[C@@](C(=O)OC)(c3cc4c(cc3OC)N(C)[C@H]3[C@@](O)(C(=O)OC)[C@H](OC(C)=O)[C@]5(CC)C=CCN6CC[C@]43[C@@H]65)C2)C1", 9.06),
]

* * *

# IC50 values compiled below
# Tested on: HCT116/VM46 (a vinblastine-resistant strain of HCT116) cells
# procedure-text: Cell growth inhibition assay, HCT116/VM46
# Type: cell-based, human
# measurement-setup: 72 hours incubation, phosphatase assay; Pgp-overexpressing resistant line

# compound, IC50 [nM]
data = [
    ("CCC1(NC(=O)N2CCC(Br)C2)CC2CN(CCc3c([nH]c4ccccc34)C(C(=O)OC)(c3cc4c(cc3OC)N(C)C3C(O)(C(=O)OC)C(OC(C)=O)C5(CC)C=CCN6CCC43C65)C2)C1 (mixture of isomers) [Compound 19]", 25),
    ("CCC(=O)Nc1ccc2c(c1)CN(C(=O)N[C@@]1(CC)C[C@H]3CN(CCc4c([nH]c5ccccc45)[C@@](C(=O)OC)(c4cc5c(cc4OC)N(C)[C@H]4[C@@](O)(C(=O)OC)[C@H](OC(C)=O)[C@]6(CC)C=CCN7CC[C@]54[C@@H]76)C3)C1)C2 [Compound 41]", 7.7),
    ("CC[C@]1(NC(=O)N2Cc3ccc(NC(=O)C(C)C)cc3C2)C[C@H]2CN(CCc3c([nH]c4ccccc34)[C@@](C(=O)OC)(c3cc4c(cc3OC)N(C)[C@H]3[C@@](O)(C(=O)OC)[C@H](OC(C)=O)[C@]5(CC)C=CCN6CC[C@]43[C@@H]65)C2)C1 [Compound 43]", 6.4),
    ("CC[C@]1(NC(=O)N2Cc3ccc(NC(=O)c4ccc(OC(F)(F)F)cc4)cc3C2)C[C@H]2CN(CCc3c([nH]c4ccccc34)[C@@](C(=O)OC)(c3cc4c(cc3OC)N(C)[C@H]3[C@@](O)(C(=O)OC)[C@H](OC(C)=O)[C@]5(CC)C=CCN6CC[C@]43[C@@H]65)C2)C1 [Compound 52]", 75),
    ("CC[C@]1(NC(=O)N2Cc3ccc(NC(=O)C(C)(C)C)cc3C2)C[C@H]2CN(CCc3c([nH]c4ccccc34)[C@@](C(=O)OC)(c3cc4c(cc3OC)N(C)[C@H]3[C@@](O)(C(=O)OC)[C@H](OC(C)=O)[C@]5(CC)C=CCN6CC[C@]43[C@@H]65)C2)C1 [Compound 44]", 5.3),
    ("CC[C@]1(NC(=O)N2Cc3ccc(C)cc3C2)C[C@H]2CN(CCc3c([nH]c4ccccc34)[C@@](C(=O)OC)(c3cc4c(cc3OC)N(C)[C@H]3[C@@](O)(C(=O)OC)[C@H](OC(C)=O)[C@]5(CC)C=CCN6CC[C@]43[C@@H]65)C2)C1 [Compound 30]", 5.9),
    ("C=CC(=O)Nc1ccc2c(c1)CN(C(=O)N[C@@]1(CC)C[C@H]3CN(CCc4c([nH]c5ccccc45)[C@@](C(=O)OC)(c4cc5c(cc4OC)N(C)[C@H]4[C@@](O)(C(=O)OC)[C@H](OC(C)=O)[C@]6(CC)C=CCN7CC[C@]54[C@@H]76)C3)C1)C2 [Compound 46]", 7.1),
    ("CC[C@]1(NC(=O)N2Cc3ccc(NC(=O)c4ccnnc4)cc3C2)C[C@H]2CN(CCc3c([nH]c4ccccc34)[C@@](C(=O)OC)(c3cc4c(cc3OC)N(C)[C@H]3[C@@](O)(C(=O)OC)[C@H](OC(C)=O)[C@]5(CC)C=CCN6CC[C@]43[C@@H]65)C2)C1 [Compound 62]", 50),
]
